pIC50 values by entry
Biological target: IL17-RE-IL-17C (Homo sapiens, UniProt Q8NFR9+Q9P0M4)
Sequence (Q9P0M4 whole entry): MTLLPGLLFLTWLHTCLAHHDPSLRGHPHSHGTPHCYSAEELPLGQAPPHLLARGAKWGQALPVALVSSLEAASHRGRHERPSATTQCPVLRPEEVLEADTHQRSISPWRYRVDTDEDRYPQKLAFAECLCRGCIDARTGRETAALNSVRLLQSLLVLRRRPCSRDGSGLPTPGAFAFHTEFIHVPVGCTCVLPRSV
Sequence (Q8NFR9 whole entry): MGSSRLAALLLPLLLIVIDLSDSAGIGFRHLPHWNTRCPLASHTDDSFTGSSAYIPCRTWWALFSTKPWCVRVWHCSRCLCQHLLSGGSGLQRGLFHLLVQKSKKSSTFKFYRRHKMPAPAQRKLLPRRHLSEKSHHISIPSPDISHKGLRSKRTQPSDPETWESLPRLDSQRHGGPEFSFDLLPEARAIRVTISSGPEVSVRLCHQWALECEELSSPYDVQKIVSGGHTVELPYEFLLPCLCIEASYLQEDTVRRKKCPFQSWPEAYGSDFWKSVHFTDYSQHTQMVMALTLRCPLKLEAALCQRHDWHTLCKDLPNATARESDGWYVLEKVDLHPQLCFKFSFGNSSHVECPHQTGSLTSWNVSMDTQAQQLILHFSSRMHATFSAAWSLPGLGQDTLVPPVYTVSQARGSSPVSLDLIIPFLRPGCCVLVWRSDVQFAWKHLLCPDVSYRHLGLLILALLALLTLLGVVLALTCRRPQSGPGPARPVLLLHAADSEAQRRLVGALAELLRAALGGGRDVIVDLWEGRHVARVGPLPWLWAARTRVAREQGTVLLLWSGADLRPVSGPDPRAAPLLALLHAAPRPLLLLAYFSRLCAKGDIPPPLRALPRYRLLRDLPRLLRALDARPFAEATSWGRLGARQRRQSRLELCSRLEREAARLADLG
Assay: Inhibition of IL-17C/IL-17RE interaction (unknown origin) incubated for 1.5 hrs by ELISA method
Positions of bridges follow the written chain, without caps; N, C: chain ends. Residues, ends and D or L forms follow the SMILES beside them.
Quick note: pIC50 means taking -log10 of the concentration in moles per liter.

COMPOUND	pIC50
CC[C@H](C)[C@@H]1NC(=O)[C@H](CO)NC(=O)[C@H](Cc2ccc(O)cc2)NC(=O)[C@H](Cc2ccc(O)cc2)NC(=O)[C@H]([C@@H](C)CC)NC(=O)[C@H](Cc2c[nH]cn2)NC(=O)[C@H](CC(N)=O)NC(=O)[C@H](Cc2ccccc2)NC(=O)[C@H](Cc2ccccc2)NC(=O)[C@H](CCC(N)=O)NC(=O)[C@H](CC(=O)O)NC(=O)[C@H]([C@@H](C)CC)NC(=O)[C@H](Cc2ccc(O)cc2)NC(=O)CSC[C@@H](C(=O)NCC(N)=O)NC1=O ({CH2CO}-YIDQFFNHIYYSICG-NH2; thioether N-14)	4.83

Continue with the compound presented below.
Query :: What pIC50 value was documented for this compound, `CC[C@H](C)[C@@H]1NC(=O)[C@H](Cc2c[nH]cn2)NC(=O)[C@H](Cc2ccc(O)cc2)NC(=O)CSC[C@@H](C(=O)NCC(N)=O)NC(=O)CNC(=O)[C@H](CC(C)C)NC(=O)[C@H]([C@H](C)O)NC(=O)CNC(=O)[C@H](Cc2ccc(O)cc2)NC(=O)[C@H](CC(C)C)NC(=O)[C@H](CO)NC(=O)[C@H](Cc2ccc(O)cc2)NC(=O)[C@H](Cc2ccc(O)cc2)NC(=O)[C@H](Cc2ccc(O)cc2)NC1=O` ?
Result :: 8.54

###

Molecular target: IL17-RE-IL-17C (Homo sapiens, UniProt Q8NFR9+Q9P0M4)
Test: Inhibition of IL-17C/IL-17RE interaction (unknown origin) incubated for 1.5 hrs by ELISA method
Positions of bridges follow the written chain, without caps; N, C: chain ends. Residues, ends and D or L forms follow the SMILES beside them.
READOUT_KIND: pIC50
Quick note: pIC50 means taking -log10 of the concentration in moles per liter.

Query :: What pIC50 value was documented for this compound, CC[C@H](C)[C@@H]1NC(=O)[C@H](Cc2c[nH]cn2)NC(=O)[C@H](Cc2ccc(O)cc2)NC(=O)CSC[C@@H](C(=O)NCC(N)=O)NC(=O)CNC(=O)[C@H](CC(C)C)NC(=O)[C@H](CCCCN)NC(=O)CNC(=O)[C@H](Cc2ccc(O)cc2)NC(=O)[C@H](CC(C)C)NC(=O)[C@H](CO)NC(=O)[C@H](C)NC(=O)[C@H](Cc2ccc(O)cc2)NC(=O)[C@H](Cc2ccc(O)cc2)NC1=O ({CH2CO}-YHIYYASLYGKLGCG-NH2; thioether N-14) ?
Result :: 8.38

###

IC50 values by entry
Molecular target: IL17-RE-IL-17C (Homo sapiens, UniProt Q8NFR9+Q9P0M4)
Test: Inhibition of IL-17C/IL-17RE interaction (unknown origin) incubated for 1.5 hrs by ELISA method
Positions of bridges follow the written chain, without caps; N, C: chain ends. Non-standard residues stand in square brackets, D forms with d. Residues, ends and D or L forms follow the SMILES beside them. Ala(imidazol-2-yl) = N[C@@H](Cc1ncc[nH]1)C(=O)O
Just the number in nM, nothing appended.

Worked cases, IC50 given:
COMPOUND	READOUT_KIND	NUMERIC_RESULT
CC(C)C[C@@H]1NC(=O)[C@H](C)NC(=O)[C@H](Cc2ccc(O)cc2)NC(=O)[C@H](Cc2ccc(O)cc2)NC(=O)[C@H](Cc2ccc(O)cc2)NC(=O)[C@H](CC(C)C)NC(=O)[C@H](Cc2ncc[nH]2)NC(=O)[C@H](Cc2ccc(O)cc2)NC(=O)CSC[C@@H](C(=O)NCC(N)=O)NC(=O)CNC(=O)[C@H](CC(C)C)NC(=O)[C@H](CC(N)=O)NC(=O)CNC(=O)[C@H](Cc2ccc(O)cc2)NC1=O ({CH2CO}-Y[Ala(imidazol-2-yl)]LYYYALYGNLGCG-NH2; thioether N-14)	IC50	11.8
CC(C)C[C@@H]1NC(=O)[C@H](CC(N)=O)NC(=O)CNC(=O)[C@H](Cc2ccc(O)cc2)NC(=O)[C@H](CC(C)C)NC(=O)[C@H](CO)NC(=O)[C@H](C)NC(=O)[C@H](Cc2ccc(O)cc2)NC(=O)[C@H](Cc2ccc(O)cc2)NC(=O)[C@H](CC(C)C)NC(=O)[C@H](Cc2c[nH]cn2)NC(=O)[C@H](Cc2ccc(O)cc2)NC(=O)CSC[C@@H](C(=O)NCC(N)=O)NC(=O)CNC1=O ({CH2CO}-YHLYYASLYGNLGCG-NH2; thioether N-14)	IC50	9.6
CC[C@H](C)[C@@H]1NC(=O)[C@H](Cc2c[nH]cn2)NC(=O)[C@H](Cc2ccc(O)cc2)NC(=O)CSC[C@@H](C(=O)NCC(N)=O)NC(=O)CNC(=O)[C@H](CC(C)C)NC(=O)[C@H](CC(N)=O)NC(=O)CNC(=O)[C@H](Cc2ccc(O)cc2)NC(=O)[C@H](CC(C)C)NC(=O)[C@H](CO)NC(=O)[C@H](CCCNC(=N)N)NC(=O)[C@H](Cc2ccc(O)cc2)NC(=O)[C@H](Cc2ccc(O)cc2)NC1=O ({CH2CO}-YHIYYRSLYGNLGCG-NH2; thioether N-14)	IC50	1.7
CC(C)C[C@@H]1NC(=O)[C@H](CO)NC(=O)CNC(=O)[C@H](Cc2ccc(O)cc2)NC(=O)[C@H](CC(C)C)NC(=O)[C@H](CO)NC(=O)[C@H](CCCNC(=N)N)NC(=O)[C@H](Cc2ccc(O)cc2)NC(=O)[C@H](Cc2ccc(O)cc2)NC(=O)[C@H](C(C)C)NC(=O)[C@H](Cc2cnc[nH]2)NC(=O)[C@H](Cc2ccc(O)cc2)NC(=O)CSC[C@@H](C(=O)NCC(N)=O)NC(=O)CNC1=O ({CH2CO}-YHVYYRSLYGSLGCG-NH2; thioether N-14)	IC50	5.4

Query :: What IC50 value was documented for this compound, CC[C@H](C)[C@@H]1NC(=O)[C@H](CCCNC(=N)N)NC(=O)[C@H](Cc2ccc(O)cc2)NC(=O)[C@H](Cc2ccc(O)cc2)NC(=O)[C@H](Cc2c[nH]cn2)NC(=O)[C@H](Cc2c[nH]cn2)NC(=O)[C@H](Cc2ccc(O)cc2)NC(=O)CSC[C@@H](C(=O)NCC(N)=O)NC(=O)CNC(=O)[C@H](CC(C)C)NC(=O)[C@H](CCC(=O)O)NC(=O)CNC(=O)[C@H](Cc2ccccc2)NC(=O)[C@H](CC(C)C)NC1=O ({CH2CO}-YHHYYRILFGELGCG-NH2; thioether N-14) ?
Result :: 1230
